# targetOrTestSystem: L1 (B3 MBL) (Stenotrophomonas maltophilia)
# Sequence (P52700 34-290): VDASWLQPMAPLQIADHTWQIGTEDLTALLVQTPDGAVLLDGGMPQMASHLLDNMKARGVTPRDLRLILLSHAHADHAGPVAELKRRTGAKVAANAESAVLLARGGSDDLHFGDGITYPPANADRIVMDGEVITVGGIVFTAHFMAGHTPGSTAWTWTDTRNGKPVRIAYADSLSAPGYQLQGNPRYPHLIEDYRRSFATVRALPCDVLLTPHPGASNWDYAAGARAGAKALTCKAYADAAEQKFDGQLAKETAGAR
# experimentSummary: Ki by imipenem hydrolysis, purified recombinant L1
# protocolConditions: read-out: Ki against L1; MMTZs; imipenem substrate, 30 °C, pH 7.5, 20 μM ZnSO4
pKi: −log10 of the molar value.
Assign class by pKi: not lower than 5 means Met; lower than 5 means Not met.

Consider the worked cases shown below.
molecule="CCOC(=O)[C@@]1(CS)N[C@@H](C(=O)O)C(C)(C)S1 [D-anti-1b]" label=Met
molecule="CCOC(=O)[C@]1(CS)N[C@H](C(=O)O)C(C)(C)S1 [L-anti-1b]" label="Not met"
molecule="CCOC(=O)[C@@]1(CS)N[C@@H](C(=O)O)CS1 [D-anti-1a]" label=Met
molecule="CCOC(=O)[C@@]1(CS)N[C@H](C(=O)O)C(C)(C)S1 [L-syn-1b]" label="Not met"

Next molecule, please.
In: Can CCOC(=O)[C@]1(CS)N[C@@H](C(=O)O)C(C)(C)S1 [D-syn-1b] be said to have pKi at or above 5?
Out: Met
